Counter-ions that a name gives are not always drawn.
Recorded melting point by entry
Expressed in °C, but write only the number.

# compound, melting point [°C]
measured = [
    ("Cc1cccc(C(OC2CCN(C)CC2)c2nc3ccccc3[nH]2)c1 (stereo not drawn)", 119),
]

Input: Entry Cc1cc(F)c(C(OC2CCN(C)CC2)c2nc3ccccc3s2)c(F)c1 (stereo not drawn) (as salt: oxalate) needs its melting point filled in; supply it.
Output: 125

Input: Entry CCc1cccc(C(OC2CCN(C)CC2)c2nc3ccccc3[nH]2)c1O (stereo not drawn) needs its melting point filled in; supply it.
Output: 105

Input: Entry COc1cccc(C(OC2CCN(C)CC2)c2nc3ccccc3[nH]2)c1O (stereo not drawn) needs its melting point filled in; supply it.
Output: 112

Input: Entry CCCCOc1cccc(C(NC2CCN(C)CC2)c2nc3ccccc3[nH]2)c1 (stereo not drawn) (as salt: oxalate) needs its melting point filled in; supply it.
Output: 137

Input: Entry CN1CCC(OC(c2cccc(CCc3cn(C)cn3)c2)c2nc3ccccc3s2)CC1 (stereo not drawn) (as salt: oxalate) needs its melting point filled in; supply it.
Output: 80
